Each recorded value in this set is attributed to paper PMC3706556.

Quick note: these are Kd numbers for system: CYP142A2 (Mycolicibacterium smegmatis, UniProt A0R4Q6)
Sequence (A0R4Q6 whole entry): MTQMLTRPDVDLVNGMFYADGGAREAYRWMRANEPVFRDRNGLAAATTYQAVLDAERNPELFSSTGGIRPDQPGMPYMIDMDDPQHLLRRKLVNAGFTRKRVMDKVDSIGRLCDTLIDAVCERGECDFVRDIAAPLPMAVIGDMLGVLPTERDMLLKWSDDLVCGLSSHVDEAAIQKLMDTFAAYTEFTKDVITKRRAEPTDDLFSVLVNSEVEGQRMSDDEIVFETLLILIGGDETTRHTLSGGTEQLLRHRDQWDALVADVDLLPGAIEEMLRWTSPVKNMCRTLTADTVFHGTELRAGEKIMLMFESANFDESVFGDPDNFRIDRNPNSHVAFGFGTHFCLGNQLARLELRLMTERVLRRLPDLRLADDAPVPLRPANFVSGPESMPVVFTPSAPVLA
Response body: numeric value in µM, unit text excluded.

Worked examples, 2 molecules total:
CC(C)CCC[C@@H](C)[C@H]1CC[C@H]2[C@@H]3CC=C4C[C@@H](O)CC[C@]4(C)[C@H]3CC[C@]12C [Cholesterol] ... 0.14
CC(C)CCC[C@@H](C)[C@H]1CC[C@H]2[C@@H]3CCC4=CC(=O)CC[C@]4(C)[C@H]3CC[C@]12C [Cholest-4-en-3-one] ... 0.52

# input Lookup: Kd / CYP142A2 (Mycolicibacterium smegmatis, UniProt A0R4Q6) / Clc1ccccc1C(c1ccccc1)(c1ccccc1)n1ccnc1 [Clotrimazole]
# output 16.2

# input Any idea what Kd came out for Clc1ccc(COC(Cn2ccnc2)c2ccc(Cl)cc2Cl)c(Cl)c1 (centres unmarked) [Miconazole] on CYP142A2 (Mycolicibacterium smegmatis, UniProt A0R4Q6)?
# output 6.58

# input # get_value(readout= Kd, system= CYP142A2 (Mycolicibacterium smegmatis, UniProt A0R4Q6)) for Clc1ccc(COC(Cn2ccnc2)c2ccc(Cl)cc2Cl)cc1 (centres unmarked) [Econazole]
# output 7.4
